All values here come from the RNAGym collection of RNA variant scans (doi:10.7554/elife.80360).

B1: Twister Ribozyme (parent)
chain: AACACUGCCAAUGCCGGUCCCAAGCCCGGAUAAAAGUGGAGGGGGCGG

- Variants of: B1
- testDescription: self-cleavage, relative activity (ratio to wild type); higher = more cleavage; co-transcriptional
Reported self-cleavage by item:
Please reply with the value in numeric form only.

Worked set:
mutationdescriptor="G24A G39A" assayendpoint=self-cleavage resultvalue=0.106
mutationdescriptor="G17U A22U" assayendpoint=self-cleavage resultvalue=0.161

Prompt: For the variant C5G A33C , report self-cleavage.
Response: 0.565

Prompt: For the variant G16C G36C , report self-cleavage.
Response: 0.0717

Prompt: For the variant C20G C25G , report self-cleavage.
Response: 0.0818

Prompt: For the variant A1U G45A , report self-cleavage.
Response: 0.0481
